Biological target: HIF1A/p300/CREB-binding protein (Homo sapiens, UniProt Q09472+Q16665+Q92793)
Assay: Inhibition of HIF-1alpha/p300/CBP (unknown origin) transcriptional activity expressed in human HeLa cells expressing HRE-Luc/CMV-Luc after 12 hrs under hypoxic condition by dual luciferase reporter gene assay
We begin with a simple list: items and their reported pIC50.
Scale note: pIC50 = -log10(concentration in M).

CC(C)CCOC(=O)C1=C(OC(=O)CC(C)C)CC2(OC(=O)CC(C)C)CCCC1C2 (centres undefined): 5.20

Please look at the following molecule next.
get_value(item= CC(C)CC(=O)OC1=C(C(=O)OCc2ccccc2)C2CCCC(OC(=O)CC(C)C)(C1)C2 (centres undefined) , readout=pIC50) returns 5.52
